Values were extracted from patent US8129396B2.

- System name: VEGFR2 kinase (Homo sapiens, UniProt P35968)
- Sequence (P35968 20-1356): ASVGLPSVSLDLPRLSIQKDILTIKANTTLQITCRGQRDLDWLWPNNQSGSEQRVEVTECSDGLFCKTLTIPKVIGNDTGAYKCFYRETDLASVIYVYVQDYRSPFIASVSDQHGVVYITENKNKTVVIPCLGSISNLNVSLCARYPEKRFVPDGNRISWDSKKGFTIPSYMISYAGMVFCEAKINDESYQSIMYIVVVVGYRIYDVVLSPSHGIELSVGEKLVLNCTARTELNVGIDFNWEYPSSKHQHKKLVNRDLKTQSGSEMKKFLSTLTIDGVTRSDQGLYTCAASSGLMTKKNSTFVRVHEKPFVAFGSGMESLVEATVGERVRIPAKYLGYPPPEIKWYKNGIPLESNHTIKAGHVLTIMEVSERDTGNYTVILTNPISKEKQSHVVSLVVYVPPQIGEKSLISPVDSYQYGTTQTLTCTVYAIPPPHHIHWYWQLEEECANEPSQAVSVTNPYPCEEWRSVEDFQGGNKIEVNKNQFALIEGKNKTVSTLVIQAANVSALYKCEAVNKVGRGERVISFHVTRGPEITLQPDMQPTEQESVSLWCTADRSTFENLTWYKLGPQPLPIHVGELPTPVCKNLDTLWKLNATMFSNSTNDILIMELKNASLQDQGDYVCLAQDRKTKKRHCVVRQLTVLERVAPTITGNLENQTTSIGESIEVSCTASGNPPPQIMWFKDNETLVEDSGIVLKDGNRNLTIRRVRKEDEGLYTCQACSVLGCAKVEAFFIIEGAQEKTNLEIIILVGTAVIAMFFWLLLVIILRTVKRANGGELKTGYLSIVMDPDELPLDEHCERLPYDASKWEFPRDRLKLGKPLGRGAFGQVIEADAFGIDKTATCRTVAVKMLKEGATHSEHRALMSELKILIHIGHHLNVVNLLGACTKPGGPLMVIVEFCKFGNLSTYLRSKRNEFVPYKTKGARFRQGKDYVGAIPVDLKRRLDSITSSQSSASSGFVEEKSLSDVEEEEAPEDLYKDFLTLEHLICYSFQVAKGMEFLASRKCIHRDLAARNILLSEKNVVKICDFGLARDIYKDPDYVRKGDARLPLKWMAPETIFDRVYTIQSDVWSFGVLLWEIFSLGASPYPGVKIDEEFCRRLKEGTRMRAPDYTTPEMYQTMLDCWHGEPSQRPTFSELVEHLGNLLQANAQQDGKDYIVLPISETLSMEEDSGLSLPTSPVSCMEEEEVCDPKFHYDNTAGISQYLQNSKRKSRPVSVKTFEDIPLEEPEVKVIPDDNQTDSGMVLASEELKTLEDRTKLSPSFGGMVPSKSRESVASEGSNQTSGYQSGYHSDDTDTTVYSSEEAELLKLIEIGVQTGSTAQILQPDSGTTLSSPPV
# label = class 1 if IC50 < 0.03 µM else class 0

molecule="CN(CCN1CCCCC1)c1ccc2c(c1)S/C(=C(/C(N)=O)c1nccc(C(F)(F)F)n1)N2 [Compound 125A]" system_name="VEGFR2 kinase (Homo sapiens, UniProt P35968)" class_name="class 1"
molecule="NC(=O)C(=C1Nc2ccc(N)cc2S1)c1nccc(C(F)(F)F)n1 (single isomer, unassigned) [Compound 32A]" system_name="VEGFR2 kinase (Homo sapiens, UniProt P35968)" class_name="class 0"
molecule="NC(=O)/C(=C1\\Nc2ccc(CN3CCNCC3)cc2S1)c1nccc(C(F)(F)F)n1 [Compound 94A]" system_name="VEGFR2 kinase (Homo sapiens, UniProt P35968)" class_name="class 1"
molecule="NC(=O)C(=C1Nc2ccccc2N1)c1ncc(C(=O)NCCN2CCOCC2)c(C(F)(F)F)n1 [Compound 135A]" system_name="VEGFR2 kinase (Homo sapiens, UniProt P35968)" class_name="class 0"
molecule="CC(C)(N)C(=O)Nc1ccc2c(c1)N/C(=C(/C(N)=O)c1nccc(C(F)(F)F)n1)N2 [Compound 81A]" system_name="VEGFR2 kinase (Homo sapiens, UniProt P35968)" class_name="class 1"
molecule="CCN(C(=O)C1CCN(C)CC1)c1ccc2c(c1)N/C(=C(/C(N)=O)c1nccc(C(F)(F)F)n1)N2 [Compound 141A]" system_name="VEGFR2 kinase (Homo sapiens, UniProt P35968)" class_name="class 0"
molecule="NC(=O)/C(=C1\\Nc2ccc(Cn3ccnc3)cc2N1)c1nccc(C(F)(F)F)n1 [Compound 90A]" system_name="VEGFR2 kinase (Homo sapiens, UniProt P35968)" class_name="class 1"
molecule="NCCCNC(=O)c1ccc2c(c1)N/C(=C(/C(N)=O)c1nccc(C(F)(F)F)n1)N2 [Compound 64A]" system_name="VEGFR2 kinase (Homo sapiens, UniProt P35968)" class_name="class 1"
molecule="CCN(CCCN1CCOCC1)C(=O)c1ccc2c(c1)N/C(=C(/C(N)=O)c1nccc(C(F)(F)F)n1)N2 [Compound 41A]" system_name="VEGFR2 kinase (Homo sapiens, UniProt P35968)" class_name="class 1"
molecule="NC(=O)/C(=C1\\Nc2ccc(CCN3CCC(F)(F)CC3)cc2S1)c1nccc(C(F)(F)F)n1 [Compound 104A]" system_name="VEGFR2 kinase (Homo sapiens, UniProt P35968)" class_name="class 0"
molecule="CN1CCN(CCC(=O)Nc2ccc3c(c2)N/C(=C(/C(N)=O)c2nccc(C(F)(F)F)n2)N3)CC1 [Compound 83A]" system_name="VEGFR2 kinase (Homo sapiens, UniProt P35968)" class_name="class 0"
molecule="NC(=O)C(=C1Nc2ccc(C(=O)NCCCN3CCOCC3)cc2S1)c1nccc(C(F)(F)F)n1 (single isomer, unassigned) [Compound 40A]" system_name="VEGFR2 kinase (Homo sapiens, UniProt P35968)" class_name="class 1"
molecule="NC(=O)/C(=C1\\Nc2ccc(NC(=O)CCn3ccnc3)cc2N1)c1nccc(C(F)(F)F)n1 [Compound 87A]" system_name="VEGFR2 kinase (Homo sapiens, UniProt P35968)" class_name="class 1"
molecule="NC(=O)C(=C1Nc2ccc(OCCn3ccnc3)cc2S1)c1nccc(C(F)(F)F)n1 (single isomer, unassigned) [Compound 117A]" system_name="VEGFR2 kinase (Homo sapiens, UniProt P35968)" class_name="class 1"
molecule="NC(=O)/C(=C1\\Nc2ccc(CCN3CCOCC3)cc2S1)c1nccc(C(F)(F)F)n1 [Compound 101A]" system_name="VEGFR2 kinase (Homo sapiens, UniProt P35968)" class_name="class 1"
molecule="CN1CCN(CCOc2ccc3c(c2)S/C(=C(/C(N)=O)c2nccc(C(F)(F)F)n2)N3)CC1 [Compound 114A]" system_name="VEGFR2 kinase (Homo sapiens, UniProt P35968)" class_name="class 0"
molecule="COc1ccnc(/C(C(N)=O)=C2/Nc3ccc(CN4CCOCC4)cc3S2)n1 [Compound 92A]" system_name="VEGFR2 kinase (Homo sapiens, UniProt P35968)" class_name="class 0"
molecule="NC(=O)/C(=C1\\Nc2ccc(CC(=O)NCCCN3CCOCC3)cc2S1)c1nccc(C(F)(F)F)n1 [Compound 110A]" system_name="VEGFR2 kinase (Homo sapiens, UniProt P35968)" class_name="class 1"
molecule="NC(=O)/C(=C1\\Nc2ccc(CCN3CCS(=O)(=O)CC3)cc2S1)c1nccc(C(F)(F)F)n1 [Compound 100A]" system_name="VEGFR2 kinase (Homo sapiens, UniProt P35968)" class_name="class 1"
molecule="NC(=O)/C(=C1\\Nc2ccc(CN3CCOCC3)cc2S1)c1nccc(C(F)(F)F)n1 [Compound 91A]" system_name="VEGFR2 kinase (Homo sapiens, UniProt P35968)" class_name="class 1"
molecule="NC(=O)/C(=C1\\Nc2ccc(C(=O)O)cc2N1)c1nccc(C(F)(F)F)n1 [Compound 28A]" system_name="VEGFR2 kinase (Homo sapiens, UniProt P35968)" class_name="class 1"
molecule="NC(=O)/C(=C1\\Nc2ccc(C(=O)N3CC[C@@H](N)C3)cc2N1)c1nccc(C(F)(F)F)n1 [Compound 68A]" system_name="VEGFR2 kinase (Homo sapiens, UniProt P35968)" class_name="class 1"
molecule="NC(=O)/C(=C1\\Nc2cc(F)c(C(=O)NCCCN3CCOCC3)cc2S1)c1nccc(C(F)(F)F)n1 [Compound 50A]" system_name="VEGFR2 kinase (Homo sapiens, UniProt P35968)" class_name="class 1"
molecule="NC(=O)/C(=C1\\Nc2ccc(CCn3ccnc3)cc2N1)c1nccc(C(F)(F)F)n1 [Compound 96A]" system_name="VEGFR2 kinase (Homo sapiens, UniProt P35968)" class_name="class 1"
molecule="NC(=O)/C(=C1\\Nc2ccc(OCCCN3CCOCC3)cc2S1)c1nccc(C(F)(F)F)n1 [Compound 113A]" system_name="VEGFR2 kinase (Homo sapiens, UniProt P35968)" class_name="class 0"
molecule="CN1CCC[C@H]1C(=O)Nc1ccc2c(c1)S/C(=C(/C(N)=O)c1nccc(C(F)(F)F)n1)N2 [Compound 78A]" system_name="VEGFR2 kinase (Homo sapiens, UniProt P35968)" class_name="class 0"
molecule="NC(=O)/C(=C1\\Nc2ccc(S(=O)(=O)NCCCN3CCOCC3)cc2S1)c1nccc(C(F)(F)F)n1 [Compound 127A]" system_name="VEGFR2 kinase (Homo sapiens, UniProt P35968)" class_name="class 1"
molecule="NC(=O)/C(=C1\\Nc2ccc(-c3ccccn3)cc2N1)c1nccc(C(F)(F)F)n1 [Compound 109A]" system_name="VEGFR2 kinase (Homo sapiens, UniProt P35968)" class_name="class 0"

* * *

pIC50: −log10 of the molar value.
Quick note: these are pIC50 numbers for system: Aurora B kinase (Homo sapiens, UniProt Q96GD4)
Sequence (Q96GD4 whole entry): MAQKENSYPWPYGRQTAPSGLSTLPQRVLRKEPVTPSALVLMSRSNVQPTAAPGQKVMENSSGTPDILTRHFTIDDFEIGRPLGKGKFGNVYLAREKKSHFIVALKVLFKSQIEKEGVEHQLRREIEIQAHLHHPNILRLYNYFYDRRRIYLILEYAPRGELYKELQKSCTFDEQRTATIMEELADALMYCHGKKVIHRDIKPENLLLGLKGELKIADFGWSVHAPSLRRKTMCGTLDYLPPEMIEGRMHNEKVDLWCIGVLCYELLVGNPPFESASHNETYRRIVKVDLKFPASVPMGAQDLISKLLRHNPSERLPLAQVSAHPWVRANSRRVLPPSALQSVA
Quantity: pIC50

compound="NCC(=O)Nc1ccc2c(c1)SC(=C(C(N)=O)c1nccc(C(F)(F)F)n1)N2 (single isomer, unassigned) [Compound 76A]" endpoint_value=8.30
compound="CN1CCN(c2ccc3c(c2)N/C(=C(/C(N)=O)c2nccc(C(F)(F)F)n2)N3)CC1 [Compound 119A]" endpoint_value=8.22
compound="Cc1cc(C)nc(/C(C(N)=O)=C2/Nc3ccccc3S2)n1 [Compound 22A]" endpoint_value=8.00
compound="CN(C)CC(=O)Nc1ccc2c(c1)S/C(=C(/C(N)=O)c1nccc(C(F)(F)F)n1)N2 [Compound 74A]" endpoint_value=8.00
compound="NC(=O)C(=C1Nc2ccc(C(=O)NCCCN3CCOCC3)cc2S1)c1nccc(C(F)(F)F)n1 (single isomer, unassigned) [Compound 40A]" endpoint_value=8.15
compound="NC(=O)/C(=C1\\Nc2ccc(NC(=O)[C@H]3CCCN3)cc2N1)c1nccc(C(F)(F)F)n1 [Compound 79A]" endpoint_value=7.70
compound="NC(=O)/C(=C1\\Nc2ccc(CCc3cccnc3)cc2S1)c1nccc(C(F)(F)F)n1 [Compound 99A]" endpoint_value=8.15
compound="Cc1cc(C(=O)O)nc(/C(C(N)=O)=C2/Nc3ccccc3S2)n1 [Compound 24A]" endpoint_value=6.00
compound="NC(=O)/C(=C1\\Nc2ccccc2S1)c1ncc(C(=O)NCCCN2CCOCC2)c(C(F)(F)F)n1 [Compound 131A]" endpoint_value=7.22
compound="CCN(CCO)C(=O)c1ccc2c(c1)S/C(=C(/C(N)=O)c1nccc(C(F)(F)F)n1)N2 [Compound 31A]" endpoint_value=8.05
compound="NC(=O)/C(=C1\\Nc2ccc(C(=O)N3CC[C@@H](N)C3)cc2N1)c1nccc(C(F)(F)F)n1 [Compound 68A]" endpoint_value=8.00
compound="NC(=O)/C(=C1\\Nc2ccc(C(=O)NC3CCNCC3)cc2S1)c1nccc(C(F)(F)F)n1 [Compound 71A]" endpoint_value=7.40
compound="NC(=O)/C(=C1\\Nc2ccccc2S1)c1nc(NCCN2CCOCC2)cc(C(F)(F)F)n1 [Compound 137A]" endpoint_value=7.52
compound="NC(=O)/C(=C1\\Nc2ccc(C(=O)N(CCO)CCO)cc2N1)c1nccc(C(F)(F)F)n1 [Compound 30A]" endpoint_value=8.00
compound="CN1CCN(CCNC(=O)c2ccc3c(c2)S/C(=C(/C(N)=O)c2nccc(C(F)(F)F)n2)N3)CC1 [Compound 57A]" endpoint_value=7.70
compound="NC(=O)/C(=C1\\Nc2ccccc2S1)c1nc(-c2cccnc2)cc(C(F)(F)F)n1 [Compound 10A]" endpoint_value=8.00
compound="NC(=O)/C(=C1\\Nc2ccc(C(=O)NCCn3ccnc3)cc2S1)c1nccc(C(F)(F)F)n1 [Compound 47A]" endpoint_value=8.22
compound="NC(=O)/C(=C1\\Nc2ccc(C(=O)N3CCC(N)CC3)cc2S1)c1nccc(C(F)(F)F)n1 [Compound 67A]" endpoint_value=7.40
compound="NC(=O)/C(=C1\\Nc2ccc(OCCN3CCOCC3)cc2S1)c1nccc(C(F)(F)F)n1 [Compound 111A]" endpoint_value=8.05
compound="NC(=O)/C(=C1\\Nc2ccc(CCN3CCC(F)(F)CC3)cc2S1)c1nccc(C(F)(F)F)n1 [Compound 104A]" endpoint_value=8.00
compound="COC(=O)c1ccc2c(c1)N/C(=C(/C(N)=O)c1nccc(C(F)(F)F)n1)N2 [Compound 29A]" endpoint_value=8.00
compound="Cn1cncc1CCc1ccc2c(c1)S/C(=C(/C(N)=O)c1nccc(C(F)(F)F)n1)N2 [Compound 98A]" endpoint_value=8.10
compound="CCN1CCN(CCCNC(=O)c2ccc3c(c2)S/C(=C(/C(N)=O)c2nccc(C(F)(F)F)n2)N3)CC1 [Compound 56A]" endpoint_value=7.70
compound="COc1ccnc(C(C(N)=O)=C2Nc3ccccc3N2)n1 [Compound 17A]" endpoint_value=7.52
compound="Cc1ccnc(C(C(N)=O)=C2Nc3ccccc3N2)n1 [Compound 19A]" endpoint_value=7.52
compound="NC(=O)/C(=C1\\Nc2ccccc2S1)c1ncc(C(=O)NCCN2CCOCC2)c(C(F)(F)F)n1 [Compound 134A]" endpoint_value=8.00
